Tested on: C. elegans
Test: microbe, parasite or virus in culture
Details: Caenorhabditis elegans, 24 h, read-out: Percentage of motility inhibition 24 h, Table S2, C. elegans SS assay, 110 μM, 24 h, averages of 4 data points
Value kind: inhibition at 110 µM (%)
Write the number in % without appending the unit.

Identify inhibition at 110 µM associated with the molecule COc1c(O)cc2c(c1O)[C@@H]1O[C@H](CO)[C@@H](O)[C@H](O)[C@H]1OC2=O
10

Identify inhibition at 110 µM associated with the molecule Cn1c(Cc2ccccc2)nc(=O)c2ccccc21
4

Identify inhibition at 110 µM associated with the molecule COc1cc2c3c(cc4ccccc4c3c1OC)N(C)CC2 [Dehydronuciferine]
6

Identify inhibition at 110 µM associated with the molecule CC[C@H]1CN2CC[C@H]1C[C@H]2[C@H](O)c1ccnc2ccc(OC)cc12 [Hydroquinine]
0

Identify inhibition at 110 µM associated with the molecule C/C=C(\C)C(=O)O[C@H]1C[C@@H](OC(C)=O)[C@@]2(C(=O)OC)CO[C@H]3[C@@H](O)[C@@](C)([C@]45O[C@@]4(C)[C@H]4C[C@@H]5O[C@@H]5OC=C[C@@]54O)[C@H]4[C@]1(CO[C@]4(O)C(=O)OC)[C@@H]32
4

Identify inhibition at 110 µM associated with the molecule CC(C)=CCC[C@](C)(O[C@@H]1O[C@H](CO[C@@H]2OC[C@H](O)[C@H](O)[C@H]2O)[C@@H](O)[C@H](O)[C@H]1O)[C@H]1CC[C@]2(C)[C@@H]1[C@H](O)C[C@@H]1[C@@]3(C)CC[C@H](O)C(C)(C)[C@@H]3[C@@H](O)C[C@]12C [Ginsenoside F3]
34
